- Protocol details: Solubility of the compound in DMSO/HBSS at pH 7.4
- Assay type: physicochemical
Readout kind: solubility (µM)
Hi! Could you send only the number? It should be in µM, unit omitted.

*Q* Looking for the measured solubility of Cc1cc([C@@H](C)Nc2ccccc2C(=O)O)c2nc(N3CCOCC3)cc(=O)n2c1 [AZD-6482] , can you help?
*A* 100

====

- Protocol details: Oral bioavailability in Beagle dog at 2 umol/kg
- Type: ADME, organism-based, Canis lupus familiaris
- Condition summary: in vivo
Readout kind: bioavailability (%)
Hi! Could you send only the number? It should be in %, unit omitted.

*Q* Looking for the measured bioavailability of C[C@@H](Oc1ccccc1)c1cc(C(=O)N(C)CCO)cn2c(=O)cc(N3CCOCC3)nc12 , can you help?
*A* 31

====

Recorded measurements of logD, one per entry
- Protocol details: Lipophilicity, log D of the compound at pH 7.4 by HPLC method
- Assay type: physicochemical
- Condition summary: buffer

Examples with answers:
Cc1cc(C(C)Nc2ccccc2-c2nnn[nH]2)c2nc(N3CCOCC3)cc(=O)n2c1 (racemic)
0.8
COc1ccccc1OC(C)c1cc(C(=O)N(C)CCO)cn2c(=O)cc(N3CCOCC3)nc12 (racemic)
1.9

Kindly consider the entry below.
*Q* Looking for the measured logD of Cc1ccccc1OC(C)c1cc(C(=O)N(C)CCO)cn2c(=O)cc(N3CCOCC3)nc12 (racemic) , can you help?
*A* 3
